# Tested on: MsmR1 (Paenibacillus polymyxa SC2-M1 (SC2 derivative)), ORF:0fff1571
# Sequence: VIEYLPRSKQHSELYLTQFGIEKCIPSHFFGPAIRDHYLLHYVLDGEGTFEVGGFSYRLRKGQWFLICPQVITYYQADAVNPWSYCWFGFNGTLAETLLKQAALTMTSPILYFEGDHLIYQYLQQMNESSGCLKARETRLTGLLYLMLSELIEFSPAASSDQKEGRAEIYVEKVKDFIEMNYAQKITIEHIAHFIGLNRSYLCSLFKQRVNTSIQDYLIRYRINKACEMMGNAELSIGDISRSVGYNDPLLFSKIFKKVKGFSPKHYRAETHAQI
# Method: EMSA
# Measurement context: Chemiluminescent EMSA kit (Beyotime); labeled probe about 0.4 uM, competitor about 4 uM, protein gradient; buffer, salt, pH and temperature not stated
Recorded metric: binding

Polymer sequence	Result value
CGGAACAAATGGATCTTCGCAAAGAATACCTTCAAATCTTTCGAGGCTCTATCAAAAGCATACTTTTGAATGCTACGATTTATGATCCGAATGGAGATGATGTTACTCCTGAAAAATTAAGAAAAGAACAGGCTCAAATCGTTAAGCCATGAATTTAATTTTGTCT (double strand) [ydfp upstream fragment]	binds

* * *

# Test system: MsmR1 (Paenibacillus polymyxa SC2-M1 (SC2 derivative)), ORF:0fff1571
# Sequence: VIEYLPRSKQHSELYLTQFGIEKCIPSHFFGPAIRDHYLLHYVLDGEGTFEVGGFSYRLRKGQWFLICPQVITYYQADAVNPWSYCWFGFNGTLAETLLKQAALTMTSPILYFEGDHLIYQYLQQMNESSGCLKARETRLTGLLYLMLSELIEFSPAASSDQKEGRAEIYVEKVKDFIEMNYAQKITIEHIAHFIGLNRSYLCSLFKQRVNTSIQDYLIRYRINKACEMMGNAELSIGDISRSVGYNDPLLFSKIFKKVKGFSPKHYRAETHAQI
# Method: EMSA
# Measurement context: Chemiluminescent EMSA kit (Beyotime); labeled probe about 0.4 uM, competitor about 4 uM, protein gradient; buffer, salt, pH and temperature not stated
Recorded metric: binding

Worked examples follow.
Polymer sequence	binding
TGATCTGGTAACACCGAACTTATTCGAGGCTTCACAGCTGGCGAAGAAAGGACCGATCACGACACTGGAGCAGATGCAGGAAGCGGCTGCTATTATCCACGAGCGTGGTGCTAAGCATGTGCTGATCAAGGACCGTGGCAAAATTCGCGCAGGTAAAGCGATGGATCTGCTGTATGACGGAATCACTTTTGACTGGTTTGAAGCGGATGTTGTACAAACCAACTTTACCCACGGTGCAGGCTGTACCACTTCGGCTGCGGTAACGGCTGGTTTGGCACAAGGGCTGACTGTAC (double strand) [pepF upstream fragment]	binds
ACCATTTCCCGGGCAATCGGCTGCCGGGTGCGAATGGAATCGCCCAAGTCCCCTCGTGCCAGTTCACTTAGATAGGTCCCATATTGCTGTAGCCACGGCTTATCCAGCCCTAATTGCTCACGCAGCGCCTGTTTGGACTGTTCCGTGGCCTTGTCCCCGAGTATCGTTTCTGCCGGATCACCGGGAATAGCATGAATAATCGAAAACACGATAAGCGTCATCCCCA (double strand) [oppC3 upstream fragment]	binds
CAGCAACGCACCTCAAGAGATTGCAGGTGTGAAGGTAGACAAAGTACTGGACTACTCGCAAGGCTTGGACGGACTTCCGCAGGAAAACGTACTCAAGTTTTTATTGGAGGACGGTTCTTGGTTCTGCCTGCGTCCTTCGGGCACAGAGCCTAAAATCAAAGTATACTTTGCAGTACGTGGTTCCTC (double strand) [PPSC2_23180 upstream fragment]	binds
CAGAGGAAATGCATGTCCGTATTATCGGAGACAACACGATTTCCCGCAAAAATCATGCGGTCATTGTGTATGATCCGAAGAAACGCAACTTTTACTTGCTGCCAGGCGATTCGTCAGGCTTGGCGTATCACAATAACGAGGCGGTATATTCACCAGTGGAGCTGGCTGCTTATGACGTGATTCAGCTCGGGCGCAGCAAATTTATCTTTATTCCGCTGTGCGGCGCTCATTTCGAGTGGGA (double strand) [pppL upstream fragment]	binds
ATATGATTTCTGTAGAACCTACTGCTATATTGTTGGATCTTATCAAGCTTTACACCATATGAACTTAGTTGACGCCTGCTACATAAAGATTCTTCTAAGTGCCTTTTTGGTGTGGATCTCTGATGATTATTATCTAAGAGAGGGGTTATTTTTCCCAA (double strand) [msmR1 promoter]	binds

Challenge: Recorded binding for GGACGAATCGCACATGAGGCTTTCCCCAACAAACGTGACAGTTTTAGAGCCTTGGGCAATTATGTAAAGAGAGGGCATGTTGAGGGTATGCGTCGGTTTCGACTCCGCGGATGCGCGCCTGAAACAAAGCTCTGGAATCGCTGTTTGGTGTAAACCATCCTTAGGCGTATGCCGTGCTATTTGCTTAGCTAACTCCGTAATGAGTTGGTTCAAACTTGTTCACCAATCCTTTTTCATTTAATCTGATATGAATATTGTAATTCAAACCGGACAGGAATAGGCAAGGAACGCGTATGAAT (double strand) [sdr3 upstream fragment] with MsmR1 (Paenibacillus polymyxa SC2-M1 (SC2 derivative)), ORF:0fff1571, please?
Response given: binds

Challenge: Provide value of binding for this record tested with MsmR1 (Paenibacillus polymyxa SC2-M1 (SC2 derivative)), ORF:0fff1571: CCGATTCATCTCATTTACGCATGGATATGTTGAGAAAAAGGAAATGCTCATAGCTAGAAAACTTTATACAATGAAAGAGAAATAAGCACTGTGAAATTCGACTTTTGATCATGGATTTCATATAATGTGAATTGCTTAAATTAGAGATTTAAC (double strand) [sucA upstream fragment]
Response given: binds

Ref: paper PMC9722767
